Recorded measurements of Mean % WT Binding, one per entry
experimental-target: human CD33 W22Q (human, UniProt P20138 18-364)
Sequence (P20138 18-364 W22Q limits assumed): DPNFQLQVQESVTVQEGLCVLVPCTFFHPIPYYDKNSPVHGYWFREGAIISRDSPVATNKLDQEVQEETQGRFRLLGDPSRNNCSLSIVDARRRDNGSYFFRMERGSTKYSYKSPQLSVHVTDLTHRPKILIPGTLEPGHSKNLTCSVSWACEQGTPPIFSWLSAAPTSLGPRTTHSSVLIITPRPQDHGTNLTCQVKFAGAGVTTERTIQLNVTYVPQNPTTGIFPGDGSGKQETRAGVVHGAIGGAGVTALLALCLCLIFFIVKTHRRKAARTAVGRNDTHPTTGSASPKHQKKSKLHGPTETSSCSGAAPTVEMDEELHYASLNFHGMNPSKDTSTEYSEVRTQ
test-details: flow cytometry, mutant on cells, IgG
Report the figure in % WT binding without appending any unit label.

Refmab #3 (antibody, human IgG1, V domains shown, Tested in IgG format; human IgG1 Fc silent (PG-LALA)) VH: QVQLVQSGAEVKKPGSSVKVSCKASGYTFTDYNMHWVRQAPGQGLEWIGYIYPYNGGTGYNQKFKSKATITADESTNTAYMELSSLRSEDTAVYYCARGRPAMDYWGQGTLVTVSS VL: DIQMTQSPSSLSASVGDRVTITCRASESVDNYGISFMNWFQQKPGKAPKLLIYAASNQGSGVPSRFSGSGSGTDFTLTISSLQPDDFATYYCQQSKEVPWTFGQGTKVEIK
12.5
Refmab #4 (antibody, human IgG1, V domains shown, Tested in IgG format; human IgG1 Fc silent (PG-LALA)) VH: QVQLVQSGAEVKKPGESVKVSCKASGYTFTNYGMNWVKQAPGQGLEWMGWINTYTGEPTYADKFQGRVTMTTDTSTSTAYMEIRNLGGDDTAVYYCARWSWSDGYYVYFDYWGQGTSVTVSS VL: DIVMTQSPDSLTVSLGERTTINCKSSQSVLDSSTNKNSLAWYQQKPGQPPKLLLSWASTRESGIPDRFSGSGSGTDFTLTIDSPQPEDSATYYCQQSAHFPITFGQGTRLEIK
111

Would you kindly look at the next entry?
IN: // query Mean % WT Binding value for entry Refmab #2 (antibody, human IgG1, V domains shown, Tested in IgG format; human IgG1 Fc silent (PG-LALA)) VH: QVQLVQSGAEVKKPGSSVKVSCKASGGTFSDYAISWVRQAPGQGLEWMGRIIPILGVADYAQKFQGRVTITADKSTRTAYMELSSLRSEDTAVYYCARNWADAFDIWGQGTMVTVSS VL: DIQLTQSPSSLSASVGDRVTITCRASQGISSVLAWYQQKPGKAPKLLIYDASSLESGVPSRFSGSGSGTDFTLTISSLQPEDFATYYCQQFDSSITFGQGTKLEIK
OUT: 108
